Biological target: DRD2 (Homo sapiens)
Sequence (P14416 whole entry, species assumed): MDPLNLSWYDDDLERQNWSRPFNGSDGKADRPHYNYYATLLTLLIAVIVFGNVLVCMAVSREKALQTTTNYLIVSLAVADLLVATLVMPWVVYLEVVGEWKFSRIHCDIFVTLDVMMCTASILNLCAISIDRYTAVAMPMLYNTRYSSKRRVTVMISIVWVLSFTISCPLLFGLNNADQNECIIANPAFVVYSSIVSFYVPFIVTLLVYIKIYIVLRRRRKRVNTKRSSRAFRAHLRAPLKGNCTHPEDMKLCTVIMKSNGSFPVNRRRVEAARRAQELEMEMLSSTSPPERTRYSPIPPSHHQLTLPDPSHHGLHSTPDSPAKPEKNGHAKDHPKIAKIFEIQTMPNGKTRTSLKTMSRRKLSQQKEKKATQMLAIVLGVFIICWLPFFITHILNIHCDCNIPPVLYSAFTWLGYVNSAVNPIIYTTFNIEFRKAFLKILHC
Assay: cell-based
Counter-ions that a name gives are not always drawn.
property-measured: EC50 (nM)
Could you give me the number in nM? Just the number is fine.

Measured EC50 of CCCN(CCc1cccs1)[C@H]1CCc2c(O)cccc2C1 [Rotigotine, rotigotine hydrochloride] : 0.05
